tested on: GC3/MTK-; assay: Inhibition of cellular growth against human adenocarcinoma (GC3/M TK-) deficient in thymidine kinase

SMILES REPR | IC50
C#CCN(Cc1ccc2nc(C)nc(O)c2c1)c1cccc(C(F)(F)F)c1 | > 4.3 µM
Nc1nc2cc3c(cc2[nH]1)N(Cc1ccc(S(=O)(=O)N2CCNCC2)cc1)CCC3 | > 50 µM
CN(Cc1ccc(S(=O)(=O)c2ccccc2)cc1)c1ccc2c3c(cccc13)C(=O)N2 | > 5 µM
Nc1nc2cc3c(cc2[nH]1)N(Cc1ccc(S(=O)(=O)c2ccccc2)cc1)CCC3 | > 5 µM

###

tested on: GC3/MTK-; experiment: Inhibition of cellular growth against human adenocarcinoma (GC3/M TK-) deficient in thymidine kinase.
Hi! Could you tag entries with IC50 below 5 µM as True, and those at or above as False? Much appreciated.

COMPOUND | CLASS ASSIGNMENT
C#CCN(Cc1ccc2nc(C)nc(O)c2c1)c1ccccc1 | False
CN(Cc1ccc(S(=O)(=O)N2CCNCC2)cc1)c1ccc2c3c(cccc13)C(=O)N2 | False
O=S(=O)(c1ccc(CN2CCCc3cc4[nH]cnc4cc32)cc1)N1CCNCC1 | False
C#CCN(Cc1ccc2[nH]c(N)nc(=O)c2c1)c1ccc(C(=O)NC(CCC(=O)O)C(=O)O)cc1 (centres undefined) | True
CN(Cc1ccc(S(=O)(=O)c2ccccc2)cc1)c1ccc2c3c(cccc13)C(N)=N2 | True
C#CCN(Cc1ccc2nc(C)nc(O)c2c1)c1ccc(S(=O)(=O)n2ccc3ccccc32)cc1 | True
C#CCN(Cc1ccc2nc(C)nc(O)c2c1)c1ccc(S(=O)(=O)c2ccccc2)cc1 | True
C#CCN(Cc1ccc2nc(C)nc(O)c2c1)c1ccc(S(=O)(=O)c2ccccc2)c(C(F)(F)F)c1 | False
C#CCN(Cc1ccc2nc(C)nc(O)c2c1)c1ccc(C(=O)NC(CCC(=O)O)C(=O)O)cc1 (centres undefined) | True
